Assay: modulation of TERT promoter-driven luciferase – cell-based, luciferase reporter, human, primary screen (AID 1259240)
Details: A2780 TERT promoter luciferase reporter, 16 h; at 20 µM, fold versus average of vehicle-only wells
The source made the active and inactive calls. No stated cut-off is given here; in the data, active means fold change mostly below about -2 (no sharp cut-off); inactive means mostly above about -1.8.
Possible outcomes: t (active), f (inactive)

Molecule	Class
CCN(CC)C(=O)c1sc(N2C(=O)Nc3ccccc3N2O)c(C(=O)OC)c1C	f
O=C(NCc1ccccc1Cl)c1c(-n2cccc2)sc2c1CCC2	f
CCOC(=O)c1c(NC(=O)CSc2ncccn2)sc(C(C)=O)c1C	f
COc1ccc2oc(=O)c(S(=O)(=O)c3ccc(C(C)C)cc3)cc2c1	f
CC(=O)c1cccc(Nc2nc(-c3c(C)nc4cc(C)ccn34)cs2)c1	t
Oc1oc(-c2ccccc2)nc1C=Nc1ccc(Cl)c2cccnc12	f
O=C1C2C(c3cccs3)NC(Cc3ccccc3)(C(=O)O)C2C(=O)N1c1ccc(F)cc1 (configuration not stated)	f
CCOc1cc(C2c3c(oc4ccc(F)cc4c3=O)C(=O)N2Cc2ccc(F)cc2)ccc1O (configuration not stated)	t
O=C(NC1CCCCC1)c1cccc(NC2=NC3CS(=O)(=O)CC3S2)c1 (configuration not stated)	f
COc1ccccc1-c1nc(-c2ccccn2)no1	t
CC1CCOC2(O1)C(=O)N(CN1CCN(c3cccc(Cl)c3)CC1)c1ccccc12 (configuration not stated)	f
O=c1nc2s/c(=C\c3ccco3)c(=O)n2nc1Cc1ccc(Cl)cc1	f
Cc1c(NC(=O)c2cc(C3CC3)on2)c(=O)n(-c2ccccc2)n1C	f
Nc1nc(SCC(=O)c2ccc(O)cc2O)n[nH]1	f
O=c1cc(-c2cc(Br)cc3c2OCOC3)oc2ccccc12	f
COc1cc(OC)cc(-c2cc(N3C(=O)Nc4ccccc4N3O)n[nH]2)c1	f
CC(NC(=O)c1cnn2c(C(F)F)cc(-c3ccccc3)nc12)c1ccccc1 (configuration not stated)	f
COc1ccc(-c2c(C)oc3c(CN4CCN(C)CC4)c(O)ccc3c2=O)cc1OC	f
CCOC(=O)C1=C(CS(=O)(=O)c2ccc(F)c(C)c2)NC(=O)NC1c1ccccc1 (configuration not stated)	f
Cc1cc(C)cc(NC2=C(N3CCOCC3)C(=O)c3ccccc3C2=O)c1	f
CCN(CC)S(=O)(=O)c1ccc2c(c1)N(CC(=O)NC1CC1)C(=O)CO2	f
Cc1nc2c3ccccc3nc(NNC(=O)CCC(=O)N3CCCC(C)C3)n2n1 (configuration not stated)	f
